- assay remarks: Half life in C57BL/6J mouse at 1.3 mg/kg, iv as bolus dose by LC-MS/MS analysis
- Assay type: ADME, organism-based
- condition info: in vivo
quantity measured: half-life (min)
Your answer is read as min, so omit the unit and give the number.

-- ask Endpoint output: half-life of "CC(C)(C)n1ncc(C(=O)N[C@@H](Cc2ccc(OC(F)(F)F)c(Cl)c2)C(=O)NC2(C#N)CC2)n1" . Value?
-- reply 78

====

- assay remarks: Clearance in C57BL/6J mouse at 0.8 mg/kg, iv as bolus dose by LC-MS/MS analysis
- Assay type: ADME, organism-based
- condition info: in vivo
quantity measured: clearance (mL/min/kg)
The reply should be a number in mL/min/kg, with the unit left off.

-- ask // returns reported clearance for input "N#CC1(NC(=O)[C@H](Cc2ccc(OC(F)(F)F)c(Cl)c2)NC(=O)c2cnn(-c3ccc(F)nc3)n2)CC1"
-- reply 10.2

====

- assay remarks: Selectivity index, ratio of Ki for human CatL to Ki for Trypanosoma brucei rhodesiense rhodesain
Ratio Ki values by entry

N#Cc1ccccc1C[C@H](NC(=O)c1cnn(-c2ccc(F)cc2)n1)C(=O)NC1(C#N)CC1; 18 to 507
N#CC1(NC(=O)[C@H](Cc2ccccc2)NC(=O)c2cnn(-c3ccc(F)cc3)n2)CC1; 18 to 507

-- ask Given the compound "COCCOc1ccc(C[C@H](NC(=O)c2cnn(-c3ccc(F)cc3)n2)C(=O)NC2(C#N)CC2)cc1Cl" , what is its reported Ratio Ki?
-- reply 18 to 507

====

Catalogue of Ratio Ki readings, one per entry.
- assay remarks: Selectivity index, ratio of Ki for human CatL to Ki for Trypanosoma brucei rhodesiense rhodesain

N#CC1(NC(=O)[C@H](Cc2cccc(Cl)c2)NC(=O)c2cnn(-c3ccc(F)cc3)n2)CC1; 18 to 507

-- ask Give the measured Ratio Ki of "CC(C)C[C@H](NC(=O)c1cnn(-c2ccc(F)cc2)n1)C(=O)NC1(C#N)CC1" .
-- reply 18 to 507

-- ask Follow-up entry: "N#CC1(NC(=O)[C@H](Cc2ccc(OCC3CC3)c(Cl)c2)NC(=O)c2cnn(-c3ccc(F)cc3)n2)CC1"
-- reply 18 to 507

====

- tested on: Rhodesain (Trypanosoma brucei rhodesiense)
- Sequence (Q95PM0 whole entry): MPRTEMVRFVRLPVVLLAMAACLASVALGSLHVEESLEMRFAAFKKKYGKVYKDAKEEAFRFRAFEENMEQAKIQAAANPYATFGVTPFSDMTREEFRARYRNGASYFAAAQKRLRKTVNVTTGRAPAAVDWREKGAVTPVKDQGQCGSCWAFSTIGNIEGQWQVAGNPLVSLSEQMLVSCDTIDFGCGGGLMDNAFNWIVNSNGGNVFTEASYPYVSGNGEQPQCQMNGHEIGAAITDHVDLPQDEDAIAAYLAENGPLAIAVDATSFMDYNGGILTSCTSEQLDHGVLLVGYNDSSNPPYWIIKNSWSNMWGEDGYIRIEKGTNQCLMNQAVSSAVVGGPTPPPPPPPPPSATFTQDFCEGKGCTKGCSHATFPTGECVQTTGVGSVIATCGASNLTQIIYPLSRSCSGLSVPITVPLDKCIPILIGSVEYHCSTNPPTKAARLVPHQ
- assay remarks: Inhibition of Trypanosoma brucei rhodesiense rhodesain using Cbz-Phe-Arg-AMC as substrate by fluorimetric method
pKi: −log10 of the molar value.
Listing of entries alongside the reported pKi.

N#CC1(NC(=O)[C@H](Cc2ccccc2)NC(=O)c2cnn(-c3ccc(F)cc3)n2)CC1; 6.22 to 8.13
COCCOc1ccc(C[C@H](NC(=O)c2cnn(-c3ccc(F)cc3)n2)C(=O)NC2(C#N)CC2)cc1Cl; 7.80 to 8.05
N#CC1(NC(=O)[C@H](Cc2ccccc2Cl)NC(=O)c2cnn(-c3ccc(F)cc3)n2)CC1; 6.22 to 8.13

-- ask Entry under review: "N#CC1(NC(=O)[C@H](Cc2ccc(OCC3CC3)c(Cl)c2)NC(=O)c2cnn(-c3ccc(F)cc3)n2)CC1" . Reported pKi?
-- reply 7.80 to 8.05

-- ask And the next one, "N#CC1(NC(=O)[C@H](Cc2cccc(Cl)c2)NC(=O)c2cnn(-c3ccc(F)cc3)n2)CC1" ?
-- reply 6.22 to 8.13

-- ask Now consider "N#Cc1ccccc1C[C@H](NC(=O)c1cnn(-c2ccc(F)cc2)n1)C(=O)NC1(C#N)CC1" and answer again.
-- reply 6.22 to 8.13

-- ask Likewise for "N#CC1(NC(=O)[C@H](Cc2ccccc2C(F)(F)F)NC(=O)c2cnn(-c3ccc(F)cc3)n2)CC1" ?
-- reply 6.22 to 8.13

====

- assay remarks: Selectivity index, ratio of IC50 for rat L6 cells to IC50 for bloodstream form of Trypanosoma brucei rhodesiense STIB 900
- Format: toxicity
- condition info: read-out: Ratio IC50
Binning of selectivity ratio into classes: low group: < 2000; middle group: ≥ 2000 and < 7000; high group: ≥ 7000

N#CC1(NC(=O)[C@H](Cc2ccc(OC(F)(F)F)c(Cl)c2)NC(=O)c2cnn(-c3ccc(Br)cc3)n2)CC1; low group
CC(C)(C)n1ncc(C(=O)N[C@@H](Cc2ccc(OC(F)(F)F)c(Cl)c2)C(=O)NC2(C#N)CC2)n1; low group
N#CC1(NC(=O)[C@H](Cc2ccc(OC(F)(F)F)c(Cl)c2)NC(=O)c2cnn(C3CC(F)(F)C3)n2)CC1; middle group
N#CC1(NC(=O)[C@H](Cc2ccc(OC(F)(F)F)c(Cl)c2)NC(=O)c2cnn(-c3ccc(Cl)cc3)n2)CC1; low group
N#CC1(NC(=O)[C@H](Cc2ccc(Cl)c(Cl)c2)NC(=O)c2cnn(C3CCC3)n2)CC1; high group

-- ask // return the class label for "N#CC1(NC(=O)[C@H](Cc2ccc(OCC3CCC3)c(Cl)c2)NC(=O)c2cnn(-c3ccc(F)cc3)n2)CC1"
-- reply low group

-- ask # repeat for "N#CC1(NC(=O)[C@H](Cc2ccc(OC(F)(F)F)c(Cl)c2)NC(=O)c2cnn(C3COC3)n2)CC1"
-- reply high group

====

- assay remarks: Intrinsic clearance in mouse liver microsomes at 2 uM after 30 mins in presence of NADPH by LC-MS/MS method
- Assay type: ADME, microsome
- condition info: read-out: CLH
quantity measured: microsomal CLint at 2 µM

Cn1ncc(C(=O)N[C@@H](Cc2ccc(OC(F)(F)F)c(Cl)c2)C(=O)NC2(C#N)CC2)n1; < 10 µL/min/mg
N#CC1(NC(=O)[C@H](Cc2ccc(OC(F)(F)F)c(Cl)c2)NC(=O)c2cnn(-c3ccc(F)cc3)n2)CC1; < 10 µL/min/mg
N#CC1(NC(=O)[C@H](Cc2ccc(Cl)c(Cl)c2)NC(=O)c2cnn(-c3ccc(F)cc3)n2)CC1; < 10 µL/min/mg

-- ask Entry under review: "N#CC1(NC(=O)[C@H](Cc2ccc(OC(F)(F)F)c(Cl)c2)NC(=O)c2cnn(-c3ccc(F)nc3)n2)CC1" . Reported microsomal CLint at 2 µM?
-- reply < 10 µL/min/mg

====

- assay remarks: Selectivity index, ratio of IC50 for rat L6 cells to IC50 for bloodstream form of Trypanosoma brucei rhodesiense STIB 900
- Type: toxicity
- condition info: read-out: Ratio IC50
Reported selectivity ratio by item:

-- ask Could you share which selectivity ratio value was measured for "N#CC1(NC(=O)[C@H](Cc2ccc(OC(F)(F)F)c(Cl)c2)NC(=O)c2cnn(-c3ccc(F)cc3)n2)CC1" ?
-- reply 2090

-- ask Please do the same for "N#CC1(NC(=O)[C@H](Cc2ccc(OC(F)(F)F)c(Cl)c2)NC(=O)c2cnn(-c3ccccc3)n2)CC1" as well.
-- reply 3580

-- ask Thanks! And "N#CC1(NC(=O)[C@H](Cc2ccc(Cl)c(Cl)c2)NC(=O)c2cnn(C3CC(F)(F)C3)n2)CC1" ?
-- reply 6840

-- ask # iterate: "N#CC1(NC(=O)[C@H](Cc2ccc(OC(F)(F)F)c(Cl)c2)NC(=O)c2cnn(C3CCC3)n2)CC1"
-- reply 48000

Entry source: ChEMBL document CHEMBL4043300
